- TESTED_ON: T1, human tissue factor pathway inhibitor (TFPI) (human, UniProt P10646 29-304, limits assumed)
- T1 construct: bought; also called hTFPI; human TFPI
- T1 sequence (looked up): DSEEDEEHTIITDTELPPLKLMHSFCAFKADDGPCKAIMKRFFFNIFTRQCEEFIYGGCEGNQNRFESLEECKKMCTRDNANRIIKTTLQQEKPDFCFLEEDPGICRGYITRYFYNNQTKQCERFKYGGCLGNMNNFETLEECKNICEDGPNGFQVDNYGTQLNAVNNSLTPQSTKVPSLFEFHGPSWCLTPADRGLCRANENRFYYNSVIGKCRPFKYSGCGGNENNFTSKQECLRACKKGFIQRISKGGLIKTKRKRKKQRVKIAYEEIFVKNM
- PROCEDURE_DETAILS: competitive ELISA
# maps each entry to its variant/HC_K99L
Report the figure in ratio without appending any unit label.

Give variant/HC_K99L for 2A8 HC S31V+I51D+S54F+K99V/LC Y48F+N51V (Fab, V domains shown) VH: QVQLVESGGGLVQPGGSLRLSCAASGFTFRVYGMSWVRQAPGKGLEWVSSDRGFSSSTYYADSVKGRFTISRDNSKNTLYLQMNSLRAEDTAVYYCARVYRYWFDYWGQGTLVTVSS VL: DIELTQPPSVSVAPGQTARISCSGDNLRNYYAHWYQQKPGQAPVVVIFYDVNRPSGIPERFSGSNSGNTATLTISGTQAEDEADYYCQSWDDGVPVFGGGTKLTVLG
8.1

Turning now to a further binder:
Read off the recorded variant/HC_K99L for 2A8 HC S35D+R52S+S55R+K99L/LC Y48F+N51V+D91W (Fab, V domains shown) VH: QVQLVESGGGLVQPGGSLRLSCAASGFTFRSYGMDWVRQAPGKGLEWVSSISGSRSSTYYADSVKGRFTISRDNSKNTLYLQMNSLRAEDTAVYYCARLYRYWFDYWGQGTLVTVSS VL: DIELTQPPSVSVAPGQTARISCSGDNLRNYYAHWYQQKPGQAPVVVIFYDVNRPSGIPERFSGSNSGNTATLTISGTQAEDEADYYCQSWWDGVPVFGGGTKLTVLG
10.1
